tgt: human Chk2 kinase (Homo sapiens)
Sequence (O96017 whole entry): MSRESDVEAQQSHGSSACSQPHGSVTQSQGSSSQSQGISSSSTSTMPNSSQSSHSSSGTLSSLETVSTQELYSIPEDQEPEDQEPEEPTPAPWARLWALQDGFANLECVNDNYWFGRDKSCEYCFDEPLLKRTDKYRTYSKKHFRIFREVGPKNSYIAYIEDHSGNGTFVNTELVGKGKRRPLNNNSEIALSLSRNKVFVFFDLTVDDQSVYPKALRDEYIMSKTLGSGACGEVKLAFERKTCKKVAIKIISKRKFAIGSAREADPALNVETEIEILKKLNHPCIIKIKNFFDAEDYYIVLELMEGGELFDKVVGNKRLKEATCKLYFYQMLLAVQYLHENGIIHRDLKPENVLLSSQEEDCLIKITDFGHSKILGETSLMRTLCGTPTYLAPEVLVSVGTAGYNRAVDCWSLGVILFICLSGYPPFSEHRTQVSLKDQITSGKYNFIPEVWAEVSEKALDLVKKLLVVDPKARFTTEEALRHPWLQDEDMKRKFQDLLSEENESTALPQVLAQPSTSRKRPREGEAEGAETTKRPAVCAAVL
test protocol: In vitro phosphorylation (kination) of membrane-immobilized peptides by human Chk2 kinase (Gst-Chk2)
Type: biochemical
Set-up: key: a “+++” indicates the peptide was relatively highly phosphorylated; a “++” indicates the peptide was relatively less phosphorylated; a “+” indicates the peptide was detectably significantly phosphorylated over negative control; no indication indicates that a peptide was not significantly phosphorylated over negative control
assay setup: peptide synthesized on membrane (about 0.1 micro-mol/cm^2); Gst-Chk2 about 5 μg in 4 ml reaction buffer, γ-33P-ATP, RT 1 hr; image analyzer signal graded −, +, ++, +++
parameter: in vitro phosphorylation by human Chk2 kinase (graded signal)

| query sequence | tgt | result value |
| --- | --- | --- |
| LYSSPSMYENL | human Chk2 kinase (Homo sapiens) | + |
| LYTSPSMPENL | human Chk2 kinase (Homo sapiens) | ++ |
| LYTSPSYWENL | human Chk2 kinase (Homo sapiens) | ++ |
| RYSLPPELSNM | human Chk2 kinase (Homo sapiens) | + |
| LYTSPSFPENL | human Chk2 kinase (Homo sapiens) | ++ |

Below are 3 sequences. Give each one its in vitro phosphorylation by human Chk2 kinase (graded signal).
1. LYTSPSYPENL
2. LYTSPSHPENL
3. LYRSPSMPENL

++
+
+

Provide in vitro phosphorylation by human Chk2 kinase (graded signal) for all items below, preserving their order.
1. LYSSPSMWENL
2. LYRSPSHWENL

1: +; 2: +

###

tgt: human Chk2 kinase (Homo sapiens)
test protocol: In vitro phosphorylation (kination) of membrane-immobilized peptides by human Chk2 kinase (Gst-Chk2)
Type: biochemical
Set-up: key: a “+++” indicates the peptide was relatively highly phosphorylated; a “++” indicates the peptide was relatively less phosphorylated; a “+” indicates the peptide was detectably significantly phosphorylated over negative control; no indication indicates that a peptide was not significantly phosphorylated over negative control
assay setup: peptide synthesized on membrane (about 0.1 micro-mol/cm^2); Gst-Chk2 about 5 μg in 4 ml reaction buffer, γ-33P-ATP, RT 1 hr; image analyzer signal graded −, +, ++, +++
parameter: in vitro phosphorylation by human Chk2 kinase (graded signal)

| query sequence | result value |
| --- | --- |
| LYRSPSHFENL | + |
| LFTSPSYPENL | + |
| LYSSPSQWENL | + |
| LYTSPSNYENL | + |
| LYSSPSYFENL | + |
| LYSSPSMFENL | + |

Provide in vitro phosphorylation by human Chk2 kinase (graded signal) for all items below, preserving their order.
1. LYTSPSYFENL
2. LYTSPSMYENL
3. LYSSPSHYENL
4. LYRSPSYWENL

1. ++
2. ++
3. ++
4. +

Respectfully, I request in vitro phosphorylation by human Chk2 kinase (graded signal) for each entry included below.
1. LFTSPSYYENL
2. LYSSPSMPENL

+++
+
